This collection of values is drawn from patent US20260151494A1.

# RLU per entry
molecular target: T1, human CD71 extracellular domain (CD71-ECD) (human, UniProt P02786 89-760); assay: primary ELISA; note: test concentration or dose not given here
T1 construct: also called hCD71; human CD71-ECD
T1 sequence (P02786 89-760): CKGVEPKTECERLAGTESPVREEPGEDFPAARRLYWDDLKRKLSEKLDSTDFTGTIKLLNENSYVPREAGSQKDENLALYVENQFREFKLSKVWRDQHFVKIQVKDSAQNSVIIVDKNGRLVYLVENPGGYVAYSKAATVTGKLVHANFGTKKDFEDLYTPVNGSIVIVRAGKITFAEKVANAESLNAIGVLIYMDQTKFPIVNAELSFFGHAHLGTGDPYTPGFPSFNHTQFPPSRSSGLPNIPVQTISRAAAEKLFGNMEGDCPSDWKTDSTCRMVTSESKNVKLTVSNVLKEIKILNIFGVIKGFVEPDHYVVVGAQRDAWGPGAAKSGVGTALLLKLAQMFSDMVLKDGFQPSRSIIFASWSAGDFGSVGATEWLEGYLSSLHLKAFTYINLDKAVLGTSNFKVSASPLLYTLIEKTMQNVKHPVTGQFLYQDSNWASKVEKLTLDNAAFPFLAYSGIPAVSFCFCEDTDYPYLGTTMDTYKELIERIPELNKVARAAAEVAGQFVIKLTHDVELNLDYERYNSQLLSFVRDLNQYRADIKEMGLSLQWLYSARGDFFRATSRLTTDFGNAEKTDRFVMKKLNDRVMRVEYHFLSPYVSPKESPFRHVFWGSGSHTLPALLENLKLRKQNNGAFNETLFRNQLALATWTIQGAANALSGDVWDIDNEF
Recorded Metric: RLU (RLU)

INSERT INTO measurements (binder, units_symbol, data_value) VALUES
  ('CD71-binding FN3 domain SEQ ID NO: 243 (designed binder) MSLPAPKNLVVSRVTEDSARLSWTAPDAAFDSFFIGYLEPQPPGEAIHLYVPGSERSYDLTGLKPGTEYNVTIQGVKGGEWSAPLSAIFTT', 'RLU', '2.78e+06'),
  ('CD71-binding FN3 domain SEQ ID NO: 325 (designed binder) MSLPAPKNLVVSRVTEDSARLSWTAPDAAFDSFEIGYFENLYLGEAIVLTVPGSERSYDLTGLKPGTEYWVQIGGVKGGNWSAPLSEIFTT', 'RLU', '2.43e+06'),
  ('CD71-binding FN3 domain SEQ ID NO: 309 (designed binder) MSLPAPENLVVSRVTEDSARLSWTAPDAAFDSFEIGYFENLYLGEAIVLTVPGSERSYDLTGLKPGTEYWVQIGGVKGGNWSAPLSAIFTT', 'RLU', '3.57e+06'),
  ('CD71-binding FN3 domain SEQ ID NO: 316 (designed binder) MSLPAPKNLVISRVTEDSARLSWTAPDAAFDSFEIGYFENLYLGEAIVLTVPGSERSYDLTGLKPGTEYWVQIGGVKGGNWSAPLSAIFTT', 'RLU', '3.03e+06'),
  ('CD71-binding FN3 domain SEQ ID NO: 235 (designed binder) MSLPAPKNLVVSRVTEDSARLSWTAPDAAFDSFEIVYAEPVRFGEAIVLTVPGSERSYDLTGLKPGTEYWVQIGGVKGGNWSAPLSAIFTT', 'RLU', '3.8e+06'),
  ('CD71-binding FN3 domain SEQ ID NO: 292 (designed binder) MSLPAPKNLVVSRVTEDSARLSWTAPDAAFDSFEIGYWENAYKGEAIVLTVPGSERSYDLTGLKPGTEYVVFIGGVKGGVWSVSLSAIFTT', 'RLU', '4.33e+06'),
  ('CD71-binding FN3 domain SEQ ID NO: 289 (designed binder) MSLPAPKNLVVSRVTEDSARLSWTAPDAAFDSFEIAYFEIAWLGEAIVLTVPGSERSYDLTGLKPGTEYWVQIGGVKGGAYSTPLSAIFTT', 'RLU', '3.57e+06'),
  ('CD71-binding FN3 domain SEQ ID NO: 299 (designed binder) MSLPAPKNLVVSRVTEDSARLSWTAPDAAFDSFEIAYFENLYLGEAIVLTVPGSERSYDLTGLKPGTEYWVQIGGVKGGNWSAPLSAIFTT', 'RLU', '3.26e+06'),
  ('CD71-binding FN3 domain SEQ ID NO: 301 (designed binder) MSLPAPKNLVVSRVTEDSARLSWTTPDAAFDSFEIGYFENLYLGEAIVLTVPGSERSYDLTGLKPGTEYWVQIGGVKGGNWSAPLSAIFTT', 'RLU', '3.19e+06'),
  ('CD71-binding FN3 domain SEQ ID NO: 281 (designed binder) MSLPAPKNLVVSRVTEDSARLSWTAPDAAFDSFFIGYLEPQPPGEAIALYVPGSERSYDLTGLKPGTEYNVTIQGVKGGFPSEPLIANFTT', 'RLU', '6.37e+06'),
  ('CD71-binding FN3 domain SEQ ID NO: 312 (designed binder) MSLPAPKNLVVSRVTEDSARLSWTAPDAAFDSFEIGYFENLYLGEAIVLTIPGSERSYDLTGLKPGTEYWVQIGGVKGGNWSAPLSAIFTT', 'RLU', '3.1e+06'),
  ('CD71-binding FN3 domain SEQ ID NO: 239 (designed binder) MSLPAPKNLVVSRVTEDSARLSWTAPDAAFDSFEIVYQENSAYGEAIVLTVPGSERSYDLTGLKPGTEYWVQIGGVKGGNWSAPLSAIFTT', 'RLU', '1.88e+06'),
  ('CD71-binding FN3 domain SEQ ID NO: 330 (designed binder) MSLPAPKNLVVSRVTEDSARLSWTAPDAAFDSFEIGYFENLYLGEAIVLTVPGSERSYDLTGLKPGTEYWVQIGGVKGGNWSAPLSAIVTT', 'RLU', '2.54e+06'),
  ('CD71-binding FN3 domain SEQ ID NO: 246 (designed binder) MSLPAPKNLVVSRVTEDSARLSWTAPDAAFDSFEIAYQELSLWGEAIVLTVPGSERSYDLTGLKPGTEYYVHIGGVKGGIWSSPLSAYFTT', 'RLU', '3.68e+06'),
  ('CD71-binding FN3 domain SEQ ID NO: 323 (designed binder) MSLPAPKNLVVSRVTEDSARLSWTAPDAAFDSFEIGYFENLYLGEAIVLTVPGSERSYDLTGLKPGTEYWVQIGGVKGGNWSGPLSAIFTT', 'RLU', '2.75e+06'),
  ('CD71-binding FN3 domain SEQ ID NO: 307 (designed binder) MSLPAPKNLVVSRVTEDSARLSWTAPDAAFNSFEIGYFENLYLGEAIVLTVPGSERSYDLTGLKPGTEYWVQIGGVKGGTFSAPLSAIFTT', 'RLU', '3.75e+06'),
  ('CD71-binding FN3 domain SEQ ID NO: 253 (designed binder) MSLPAPKNLVVSRVTEDSARLSWTAPDAAFDSFDINYWENESGGEAIALFVPGSERSYDLTGLKPGTEYWVSIGGVKGGRFSEPLYARFTT', 'RLU', '3.53e+06'),
  ('CD71-binding FN3 domain SEQ ID NO: 238 (designed binder) MSLPAPKNLVVSRVTEDSARLSWTAPDAAFDSFEIGYFENDYFGEAIVLTVPGSERSYDLTGLKPGTEYVVFIGGVKGGKWSAPLSAIFTT', 'RLU', '3.86e+06');
